# Lookup of reported pIC50 keyed by entry
# Tested Target: Peroxisome proliferator-activated receptor alpha (Homo sapiens, UniProt Q07869)
# Sequence (Q07869 whole entry): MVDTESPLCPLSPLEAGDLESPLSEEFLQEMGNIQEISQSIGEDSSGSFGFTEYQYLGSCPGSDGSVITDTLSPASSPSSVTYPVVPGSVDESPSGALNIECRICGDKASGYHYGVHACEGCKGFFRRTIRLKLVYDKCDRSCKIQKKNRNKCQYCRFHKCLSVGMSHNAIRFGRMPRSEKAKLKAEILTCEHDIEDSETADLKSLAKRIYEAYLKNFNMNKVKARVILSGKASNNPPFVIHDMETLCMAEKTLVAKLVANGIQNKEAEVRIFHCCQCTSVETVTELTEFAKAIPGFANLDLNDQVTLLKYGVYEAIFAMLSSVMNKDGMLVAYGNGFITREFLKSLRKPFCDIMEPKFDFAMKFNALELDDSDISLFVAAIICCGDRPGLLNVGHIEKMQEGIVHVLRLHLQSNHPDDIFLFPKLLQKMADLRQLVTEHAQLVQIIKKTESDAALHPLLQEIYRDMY
pIC50: −log10 of the molar value.

{"Smiles Code": "O=C(O)Cn1ccc2cc(OCCCOc3ccc4cc(C(=O)c5ccccc5)ccc4c3)ccc21", "Sign Qualifier": "=", "pIC50": 6.32}
{"Smiles Code": "O=C(O)Cn1ccc2cc(OCCCOc3ccc(C(=O)c4ccc(F)cc4)cc3)ccc21", "Sign Qualifier": "<", "pIC50": 5.00}
{"Smiles Code": "O=C(O)Cn1ccc2ccc(OCCCOc3ccc4cc(C(=O)c5ccccc5)ccc4c3)cc21", "Sign Qualifier": "=", "pIC50": 5.35}
{"Smiles Code": "CCCc1cc(C(=O)c2ccc(F)cc2)ccc1OCCCOc1ccc2c(ccn2CC(=O)O)c1", "Sign Qualifier": "=", "pIC50": 6.33}
